Tested on: LPS-induced nitric oxide (NO) production in RAW 264.7 cells
Test: Nitric oxide production in LPS-stimulated macrophages (Griess)
Type: cell-based, mouse
Details: Mus musculus; LPS-stimulated RAW264.7, nitrite 24 h after LPS
QUANTITY_MEASURED: IC50 (µM)
# unit: µM | format: bare number

Input line: Looking for the measured IC50 of C=C(C)C(=O)O[C@H]1CC2=C[C@@H](C/C(C)=C/[C@H]3OC(=O)C(=C)[C@H]13)OC2=O [DET, deoxyelephantopin, reference compound] , can you help?
Output line: 2.9

Input line: GET /values?readout=IC50&item= C=C1C(=O)OC2CC3=C[C@@H](C/C(C)=C/C(OC(=O)C(C)CC)[C@H]12)OC3=O (stereo partly shown)
Output line: 2

Input line: Can you look up the measured IC50 of C=C1C(=O)OC2CC3=C[C@@H](C/C(C)=C/[C@@H](OC(=O)/C=C/c4ccc5c(c4)OCO5)[C@H]12)OC3=O (stereo partly shown) for me?
Output line: 3.1

Input line: State the recorded IC50 for this entry: C=C1C(=O)OC2CC3=C[C@@H](C/C(C)=C/C(OC(=O)/C=C/c4ccc(C)cc4)[C@H]12)OC3=O (stereo partly shown)
Output line: 1.9

Input line: Please look up its IC50: C=C1C(=O)OC2CC3=C[C@@H](C/C(C)=C/C(OC(=O)c4ccc(C)cc4)[C@H]12)OC3=O (stereo partly shown)
Output line: 1.9

---

Tested on: A2058 (BRAF mutation)
Test: MTT cell viability assay, A2058 melanoma
Type: cell-based, human
Conditions: Homo sapiens, A2058, 24 h
QUANTITY_MEASURED: IC50

Worked cases, answers included:
compound="C=C1C(=O)OC2CC3=C[C@@H](C/C(C)=C/C(OC(=O)C(C)CC)[C@H]12)OC3=O (stereo partly shown) [DETD-13]" reading="> 10 µM"
compound="C=C1C(=O)OC2CC3=C[C@@H](C/C(C)=C/[C@@H](OC(=O)/C=C/c4ccc(OCC)cc4)[C@H]12)OC3=O (stereo partly shown) [DETD-60]" reading="4.1 µM"
compound="C=C1C(=O)OC2CC3=C[C@@H](C/C(C)=C/C(OC(=O)CC(O)(C(C)C)C(C)C)[C@H]12)OC3=O (stereo partly shown) [DETD-23]" reading="> 10 µM"

Input line: Given C=C1C(=O)OC2CC3=C[C@@H](C/C(C)=C/C(OC(=O)/C=C/C)[C@H]12)OC3=O (stereo partly shown) [DETD-24] , state its recorded IC50.
Output line: > 10 µM

Input line: Which IC50 is listed for C=C1C(=O)OC2CC3=C[C@@H](C/C(C)=C/C(OC(=O)/C=C/c4cc(OC)c(OC)c(OC)c4)[C@H]12)OC3=O (stereo partly shown) [DETD-7] ?
Output line: 5.5 µM

Input line: So what does the record say about IC50 for C=C1C(=O)OC2CC3=C[C@@H](C/C(C)=C/C(OC(C)=O)[C@H]12)OC3=O (stereo partly shown) [DETD-17] ?
Output line: > 10 µM

Input line: Requested field: IC50. Item: C=C1C(=O)OC2CC3=C[C@@H](C/C(C)=C/C(OC(=O)/C=C/c4cccc(OC(F)(F)F)c4)[C@H]12)OC3=O (stereo partly shown) [DETD-47]
Output line: > 10 µM

---

Test system: HTB-68 (NRAS mutation)
Assay: MTT cell viability assay, HTB-68 melanoma
Assay type: cell-based, human
Settings: 24 h
QUANTITY_MEASURED: IC50

Input line: For C=C(C)C(=O)O[C@H]1CC2=C[C@@H](C/C(C)=C/[C@H]3OC(=O)C(=C)[C@H]13)OC2=O [DET, deoxyelephantopin, reference compound] , what is its reported IC50?
Output line: > 10 µM

---

Test system: KATO III stomach cancer cell line
Assay: MTT cell viability assay, KATO III
Type: cell-based
Conditions: Homo sapiens, 24 h
QUANTITY_MEASURED: pIC50
// field semantics: pIC50 = negative decimal log of concentration (mol/L)

As a guide, the following entries are already answered.
molecule="C=C1C(=O)OC2CC3=C[C@@H](C/C(C)=C/C(OC(=O)/C=C/c4cccc(OC)c4)[C@H]12)OC3=O (some centres unmarked)" reading=6.54
molecule="C=C(C)C(=O)O[C@H]1CC2=C[C@@H](C/C(C)=C/[C@H]3OC(=O)C(=C)[C@H]13)OC2=O [DET, deoxyelephantopin, reference compound]" reading=5.83
molecule=C=C1C(=O)O[C@H]2CC3=C[C@@H](C/C(C)=C/[C@@H](OC(=O)Cc4cccc5ccccc45)[C@H]12)OC3=O reading=6.19
molecule=C=C1C(=O)O[C@H]2CC3=C[C@@H](C/C(C)=C/[C@@H](OC(=O)/C=C/c4ccccc4)[C@H]12)OC3=O reading=6.38

Now for a further molecule.
Input line: Field request: pIC50 | item: C=C1C(=O)O[C@H]2CC3=C[C@@H](C/C(C)=C/[C@@H](OC(=O)c4ccc(OC)cc4)[C@H]12)OC3=O
Output line: 6.09

---

Test system: MeWo (No NRAS or BRAF mutation)
Experiment: MTT cell viability assay, MeWo melanoma
Assay type: cell-based, human
Details: Homo sapiens, MeWo, 24 h
Below, each of the compounds is paired with its reported IC50 value.

Example entries begin here.
compound="C=C1C(=O)OC2CC3=C[C@@H](C/C(C)=C/C(OC(=O)/C=C/c4ccco4)[C@H]12)OC3=O (stereo partly drawn) [DETD-29]" quantity_measured=IC50 reading="> 10 µM"
compound="C=C1C(=O)OC2CC3=C[C@@H](C/C(C)=C/C(OC(=O)CC(C)CC)[C@H]12)OC3=O (stereo partly drawn) [DETD-18]" quantity_measured=IC50 reading="> 10 µM"
compound="C=C1C(=O)OC2CC3=C[C@@H](C/C(C)=C/C(OC(=O)/C=C/CC)[C@H]12)OC3=O (stereo partly drawn) [DETD-25]" quantity_measured=IC50 reading="> 10 µM"
compound="C=C1C(=O)OC2CC3=C[C@@H](C/C(C)=C/C(OC(=O)C4CCCCC4)[C@H]12)OC3=O (stereo partly drawn) [DETD-38]" quantity_measured=IC50 reading="> 10 µM"
compound="C=C1C(=O)OC2CC3=C[C@@H](C/C(C)=C/C(OC(=O)C(Cl)Cl)[C@H]12)OC3=O (stereo partly drawn) [DETD-9]" quantity_measured=IC50 reading="> 10 µM"

Input line: So what IC50 did C=C1C(=O)OC2CC3=C[C@@H](C/C(C)=C/C(OC(C)=O)[C@H]12)OC3=O (stereo partly drawn) [DETD-17] get with MeWo (No NRAS or BRAF mutation)?
Output line: > 10 µM

Input line: Report IC50 for C=C(C)C(=O)O[C@H]1CC2=C[C@@H](C/C(C)=C/[C@H]3OC(=O)[C@@H](CN(C)C)[C@H]13)OC2=O [DETD-1] tested on MeWo (No NRAS or BRAF mutation).
Output line: > 10 µM

Input line: Form: Entry = C=C1C(=O)OC2CC3=C[C@@H](C/C(C)=C/C(OC(=O)/C=C/c4cccc(OC)c4)[C@H]12)OC3=O (stereo partly drawn) [DETD-39] | System = MeWo (No NRAS or BRAF mutation) | IC50 = ____
Output line: 3.5 µM

Input line: Could you share what IC50 was measured for C=C1C(=O)OC2CC3=C[C@@H](C/C(C)=C/C(OC(=O)c4cc5ccccc5o4)[C@H]12)OC3=O (stereo partly drawn) [DETD-40] , tested on MeWo (No NRAS or BRAF mutation)?
Output line: > 10 µM

Input line: Record C=C1C(=O)OC2CC3=C[C@@H](C/C(C)=C/C(OC(=O)Cc4ccc5cc(OC)ccc5c4)[C@H]12)OC3=O (stereo partly drawn) [DETD-46] : what is its IC50 with MeWo (No NRAS or BRAF mutation)?
Output line: 6.3 µM

---

Here the recorded pIC50 is given for each entry.
Test system: A2058 (BRAF mutation)
Test: MTT cell viability assay, A2058 melanoma
Assay type: cell-based, human
Conditions: Homo sapiens, A2058, 24 h
pIC50: −log10 of the molar value.

Input line: Item under review: C=C1C(=O)OC2CC3=C[C@@H](C/C(C)=C/C(OC(=O)C4CCCC4)[C@H]12)OC3=O (stereo partly shown) . Reported pIC50?
Output line: < 5.00

---

Test system: M10 normal mammary epithelial cells
Assay: MTT cell viability assay, M10 normal cells
Type: cell-based, human
Conditions: Homo sapiens, Epithelial cell, 24 h
pIC50: −log10 of the molar value.
Recorded pIC50 for the following compounds

As a guide, the following entries are already answered.
compound="C=C1C(=O)OC2CC3=C[C@@H](C/C(C)=C/[C@H](OC(=O)Cc4cccc5ccccc45)[C@H]12)OC3=O (some centres unmarked)" reading="< 5.12"
compound="C=C1C(=O)OC2CC3=C[C@@H](C/C(C)=C/C(OC(=O)/C=C/c4cccs4)[C@H]12)OC3=O (some centres unmarked)" reading="< 5.12"
compound="C=C1C(=O)OC2CC3=C[C@@H](C/C(C)=C/C(OC(=O)/C=C/c4ccc(OC)cc4)[C@H]12)OC3=O (some centres unmarked)" reading=5.33
compound="C=C1C(=O)OC2CC3=C[C@@H](C/C(C)=C/[C@@H](OC(=O)Cc4coc5ccccc45)[C@H]12)OC3=O (some centres unmarked)" reading="< 5.12"
compound="C=C1C(=O)OC2CC3=C[C@@H](C/C(C)=C/C(OC(=O)C(CC)CC)[C@H]12)OC3=O (some centres unmarked)" reading="< 5.12"

Input line: # query: pIC50 | item C=C1C(=O)OC2CC3=C[C@@H](C/C(C)=C/C(OC(=O)/C=C/c4cccc(OC(F)(F)F)c4)[C@H]12)OC3=O (some centres unmarked) | system: M10 normal mammary epithelial cells
Output line: < 5.12

Input line: State its pIC50 on M10 normal mammary epithelial cells: C=C1C(=O)OC2CC3=C[C@@H](C/C(C)=C/[C@@H](OC(=O)C(C)(OC)c4ccc5ccccc5c4)[C@H]12)OC3=O (some centres unmarked)
Output line: < 5.12

Input line: Give the reported pIC50 for C=C1C(=O)OC2CC3=C[C@@H](C/C(C)=C/C(OC(=O)C(CC)CCCC)[C@H]12)OC3=O (some centres unmarked) (system: M10 normal mammary epithelial cells).
Output line: < 5.12

Input line: Can you look up pIC50 on M10 normal mammary epithelial cells for C=C1C(=O)OC2CC3=C[C@@H](C/C(C)=C/C(OC(=O)/C=C/c4ccc(Cl)cc4)[C@H]12)OC3=O (some centres unmarked) ?
Output line: 5.32

Input line: Form: Entry = C=C1C(=O)OC2CC3=C[C@@H](C/C(C)=C/C(OC(=O)C(C)CCCC)[C@H]12)OC3=O (some centres unmarked) | System = M10 normal mammary epithelial cells | pIC50 = ____
Output line: 5.33

Input line: M10 normal mammary epithelial cells / pIC50 / C=C1C(=O)O[C@H]2CC3=C[C@@H](C/C(C)=C/[C@@H](OC(=O)/C=C/c4ccccc4)[C@H]12)OC3=O : value?
Output line: 5.31

Input line: API: value(readout= pIC50, system= M10 normal mammary epithelial cells, query= C=C1C(=O)OC2CC3=C[C@@H](C/C(C)=C/C(OC(=O)Cc4cccc5cc(OC)ccc45)[C@H]12)OC3=O (some centres unmarked) )
Output line: 5.33

Input line: State its pIC50 on M10 normal mammary epithelial cells: C=C1C(=O)OC2CC3=C[C@@H](C/C(C)=C/C(OC(=O)CC(O)(C(C)C)C(C)C)[C@H]12)OC3=O (some centres unmarked)
Output line: < 5.12

Input line: Request - read-out pIC50 | tested on M10 normal mammary epithelial cells | compound C=C1C(=O)OC2CC3=C[C@@H](C/C(C)=C/C(OC(=O)[C@H](C)c4ccc5cc(OC)ccc5c4)[C@H]12)OC3=O (some centres unmarked)
Output line: < 5.12

Sourced from patent US10238631B2
